src = ChEMBL document CHEMBL6127076

ASSAY_EXPLANATION: Inhibition of NLRP3 inflammasome pathway in human THP-1 cells assessed as inhibition of LPS/MSU-induced IL-1beta secretion
OUTCOME_MEASURE: IC50 (µM)
Number in µM, nothing else.

-- ask Requested field: IC50. Item: CC1(C)C(=O)N(c2ccc(Oc3ccccc3)cc2)C(=S)N1Cc1ccc(S(N)(=O)=O)c(F)c1
-- reply 5.3

-- ask Requested field: IC50. Item: CC1(C)C(=O)N(c2cc(C(F)(F)F)cc(C(F)(F)F)c2)C(=S)N1Cc1ccc(S(N)(=O)=O)c(F)c1
-- reply 8.3

-- ask Requested field: IC50. Item: COc1ccc(CN2C(=S)N(c3ccc(C(C)(C)C)cc3)C(=O)C2(C)C)cc1F
-- reply 13.9

-- ask Requested field: IC50. Item: COc1ccc(N2C(=O)C(C)(C)N(Cc3ccc(C(F)(F)F)cc3)C2=S)cc1
-- reply 13

-- ask Requested field: IC50. Item: COc1ccc(N2C(=O)C(C)(C)N(Cc3ccc(Br)c(C)c3)C2=S)cc1
-- reply 10.1

-- ask Requested field: IC50. Item: COc1ccc(N2C(=O)C(C)(C)N(Cc3ccc(C(C)C)cc3)C2=S)cc1
-- reply 15.7

-- ask Requested field: IC50. Item: CC1(C)C(=O)N(c2ccc(C(F)(F)F)cc2)C(=S)N1Cc1ccc(S(N)(=O)=O)c(F)c1
-- reply 4.8

-- ask Requested field: IC50. Item: COc1ccc(N2C(=O)C(C)(C)N(Cc3ccccc3C(F)(F)F)C2=S)cc1
-- reply 29.2

-- ask Requested field: IC50. Item: COc1ccc(N2C(=O)C(C)(C)N(Cc3ccc(C)c(C)c3)C2=S)cc1
-- reply 6.9

-- ask Requested field: IC50. Item: CC(C)(C)c1ccc(N2C(=O)C(C)(C)N(Cc3ccc(S(N)(=O)=O)c(F)c3)C2=S)cc1
-- reply 6.4

-- ask Requested field: IC50. Item: C=C1C(=O)[C@]23[C@H](O)[C@H]1CC[C@H]2[C@@]12CO[C@]3(O)[C@@H](O)[C@@H]1C(C)(C)CC[C@@H]2O [ORIDONIN]
-- reply 1.9

-- ask Requested field: IC50. Item: Cc1ccc(CN2C(=S)N(c3ccc(C(C)(C)C)cc3)C(=O)C2(C)C)cc1C
-- reply 4.3

----------
ASSAY_EXPLANATION: Plasma stability in human plasma assessed as compound remaining measured after 60 mins
Type: ADME, cell-free
RUN_PARAMETERS: read-out: Stability
OUTCOME_MEASURE: remaining at 1 h
Report the figure along with its unit, number first.

-- ask Requested field: remaining at 1 h. Item: CC(C)[N+](C)(CCOC(=O)C1c2ccccc2Oc2ccccc21)C(C)C
-- reply 10.7%

-- ask Requested field: remaining at 1 h. Item: CC(C)(C)c1ccc(N2C(=O)C(C)(C)N(Cc3ccc(S(N)(=O)=O)c(F)c3)C2=S)cc1
-- reply 100%

-- ask Requested field: remaining at 1 h. Item: COc1ccc(N2C(=O)C(C)(C)N(Cc3ccc(C)c(C)c3)C2=S)cc1
-- reply 102%

-- ask Requested field: remaining at 1 h. Item: CC1(C)C(=O)N(c2cc(C(F)(F)F)cc(C(F)(F)F)c2)C(=S)N1Cc1ccc(S(N)(=O)=O)c(F)c1
-- reply 100%

-- ask Requested field: remaining at 1 h. Item: COc1ccc(N2C(=O)C(C)(C)N(Cc3ccc(Br)c(C)c3)C2=S)cc1
-- reply 105%

-- ask Requested field: remaining at 1 h. Item: CC1(C)C(=O)N(c2ccc(Oc3ccccc3)cc2)C(=S)N1Cc1ccc(S(N)(=O)=O)c(F)c1
-- reply 101%

-- ask Requested field: remaining at 1 h. Item: Cc1ccc(CN2C(=S)N(c3ccc(C(C)(C)C)cc3)C(=O)C2(C)C)cc1C
-- reply 113%

-- ask Requested field: remaining at 1 h. Item: COc1ccc(N2C(=O)/C(=C/c3ccccc3C(F)(F)F)SC2=S)cc1
-- reply 4.34%

-- ask Requested field: remaining at 1 h. Item: CC1(C)C(=O)N(c2ccc(C(F)(F)F)cc2)C(=S)N1Cc1ccc(S(N)(=O)=O)c(F)c1
-- reply 103%
